List of IC50 values.
Target: alpha-amylase
Test: Alpha-amylase activity assay (starch/DNS, 540 nm)
Assay type: biochemical
Details: mean ± SEM; read-out: IC50 = α-amylase µM ± SEM
The reply should be a number in µM, with the unit left off.

{"structure smiles string": "O=C1C=C(Nc2nnc(NC(=O)c3c(O)cc(O)cc3O)o2)N=N1", "unit of measure": "µM", "IC50": 3.2}
{"structure smiles string": "Cc1ccc(Cl)c(C(=O)Nc2nnc(NC3=CC(=O)N=N3)o2)c1", "unit of measure": "µM", "IC50": 11.7}

Would you kindly share the measured IC50 for `O=C1C=C(Nc2nnc(NC(=O)c3ccc(Br)cc3)o2)N=N1` ?
15.3
